- TEST: DRUGMATRIX: Glutamate, Kainate radioligand binding (ligand: [3H] Kainic acid)
- Format: cell membranes, Rattus norvegicus, Wistar, Brain, Membrane
- EXPERIMENTAL CONTEXT: Not Active = under 50% inhibition at 10 µM
ENDPOINT LABEL: Ki

CC(=O)OCC(=O)[C@@]12OC(C)(C)O[C@@H]1C[C@H]1[C@@H]3C[C@H](F)C4=CC(=O)C=C[C@]4(C)[C@@]3(F)[C@@H](O)C[C@@]12C [FLUOCINONIDE]: Not Active
ClC(Cl)(Cl)Cl [CARBON TETRACHLORIDE]: Not Active
C[S+](C)[O-] [DIMETHYL SULFOXIDE]: Not Active
CC(O)(P(=O)(O)O)P(=O)(O)O: Not Active

Briefly, Ki measured for CC(=O)OCC(COC(C)=O)OC(C)=O : Not Active

Briefly, Ki measured for CC(C)c1c(C(=O)Nc2ccccc2)c(-c2ccccc2)c(-c2ccc(F)cc2)n1CC[C@@H](O)C[C@@H](O)CC(=O)O : Not Active

Briefly, Ki measured for NS(=O)(=O)c1cc(C2(O)NC(=O)c3ccccc32)ccc1Cl (configuration not stated) : Not Active
